TEST_SYSTEM: T1, Clostridium difficile toxin A, soluble full-length (TechLab) (Clostridium difficile, UniProt P16154 1-2710)
T1 construct: also called tcdA
PROTOCOL_TEXT: SPR Biacore T200, 37C, mAb capture
Listing: koff of selected binders

BINDER	koff / s⁻¹
H1H3330P (antibody, V domains shown) VH: QVQLVESGGGVVQPGGSLRLSCAASGFTFSSYAMHWVRQAPGKGLEWVAIIWFDGSNEDYADSVKGRFTISRDNSKNMVYLQINSLRAEDTAVYYCARSANWNYEGGPLFDYWGQGTLVTVSS VL: DIQMTQSPSSLSASVGDRVTITCRASQTISTFLNWYQQKPGKGPELLIYTASSLQSGVPSRFSGSGSGTDFALTISSLQPEDFATYYCQQNYNDPPTFGQGTRLEIKR	0.000137
Control I (anti-toxin A antibody with the variable domains of the "3D8" antibody of U.S. Pat. No. 7,625,559 and US2005/0287150) (antibody, human IgG1, kappa, V domains shown, also called control 1; Control Antibody I) VH: QVQLVESGGGVVQPGRSLRLSCAASGFSFSNYGMHWVRQAPGKGLEWVALIWYDGSNEDYTDSVKGRFTISRDNSKNTLYLQMNSLRAEDTAVYYCARWGMVRGVIDVFDIWGQGTVVTVSS VL: DIQMTQSPSSVSASVGDRVTITCRASQGISSWLAWYQHKPGKAPKLLIYAASSLQSGVPSRFSGSGSGTDFTLTISSLQPEDFATYYCQQANSFPWTFGQGTKVEIKR	3.24e-05
H1H3117N (antibody, V domains shown) VH: EVQLLESGGGLAQPGGSLRLSCAASGFNFGTHDMSWVRQAPGKGLEWVSGLTSTGGSASSADSVKGRFTISRDNSKNILYLQMNSLRAEDTAVYYCAKTFNWNSYFDYWGQGTLVTVSS VL: EIVLTQSPGTLSLSPGERATLSCRASQSISTYYLAWYQQKPDQPPRLLIYGTSSRATGIPDRFSGSGSGTDFTLTISRLDPEDFAVYYCQQYGNSLYTFGQGTKLEIK	3.84e-05
